Cited source for all entries: patent US7445765B2

# Experiment Summary: Biodistribution of the 99mTc(N) heterocomplexes in rats (organ uptake, heart accumulation, heart/lung and heart/liver ratios)
# Type: in vivo, female Sprague-Dawley rats
# Applied Conditions: 120 min post injection
# Experimental: The biodistribution was measured by using female Sprague-Dawley rats (SD rats) weighing 200 g to 250 g. Each of the ^99mTc(N) heterocomplexes purified in the manner described above was diluted with phosphate buffer (0.1 M, pH=7.4) to obtain a final solution having an ethanol content of 10%. […] The blood was withdrawn from the heart through a syringe and counted. […] The organs were excised from the rats, washed with physiological saline, weighed, and counted in a NaI well counter. […]
Measured Attribute: Biodistribution in rats: Blood (% ID/g)

* COCCC[P]1(CCCOC)CCN(CCOC)CC[P](CCCOC)(CCCOC)[99Tc+]12(#[N])[S]C(N(CCOC)CCOC)=[S]2 [[^99mTc(N) (PNP3) (DPODC)]^+] | 0.01
* CCOCCN(CCOCC)C1=[S][99Tc+]2(#[N])([S]1)[P](CCCOC)(CCCOC)CCN(CCOC)CC[P]2(CCCOC)CCCOC [[^99mTc(N) (PNP3) (DBODC)]^+] | 0.01

====

# Experiment Summary: Biodistribution of the 99mTc(N) heterocomplexes in rats (organ uptake, heart accumulation, heart/lung and heart/liver ratios)
# Format: in vivo, female Sprague-Dawley rats
# Applied Conditions: 60 min post injection
Measured Attribute: Biodistribution in rats: Intestine (% dose/g)

* CCOCCN1CC[P](CCCOC)(CCCOC)[99Tc+]2(#[N])([S]C(N(CCOCC)CCOCC)=[S]2)[P](CCCOC)(CCCOC)CC1 [[^99mTc(N) (PNP5) (DBODC)]^+] | 6.52
* CCOCCN1CC[P](CCCOC)(CCCOC)[99Tc+]2(#[N])([S]C(N(CCOCC)C(C)C)=[S]2)[P](CCCOC)(CCCOC)CC1 [[^99mTc(N) (PNP5) (ISOET)]^+] | 8.29

====

# Experiment Summary: Biodistribution of the 99mTc(N) heterocomplexes in rats (organ uptake, heart accumulation, heart/lung and heart/liver ratios)
# Assay type: in vivo, female Sprague-Dawley rats
# Applied Conditions: 10 min post injection
# Method: The biodistribution was measured by using female Sprague-Dawley rats (SD rats) weighing 200 g to 250 g. Each of the ^99mTc(N) heterocomplexes purified in the manner described above was diluted with phosphate buffer (0.1 M, pH=7.4) to obtain a final solution having an ethanol content of 10%. […] The blood was withdrawn from the heart through a syringe and counted. […] The organs were excised from the rats, washed with physiological saline, weighed, and counted in a NaI well counter. […]
Measured Attribute: Biodistribution in rats: Lungs (% dose/g)

* CCOCCN1CC[P](CCCOC)(CCCOC)[99Tc+]2(#[N])([S]C(N(CCOCC)C(C)C)=[S]2)[P](CCCOC)(CCCOC)CC1 [[^99mTc(N) (PNP5) (ISOET)]^+] | 0.73
* CCOCCN1CC[P](CCCOC)(CCCOC)[99Tc+]2(#[N])([S]C(N(CCOCC)CCOCC)=[S]2)[P](CCCOC)(CCCOC)CC1 [[^99mTc(N) (PNP5) (DBODC)]^+] | 0.88

====

# Experiment Summary: Biodistribution of the 99mTc(N) heterocomplexes in rats (organ uptake, heart accumulation, heart/lung and heart/liver ratios)
# Type: in vivo, female Sprague-Dawley rats
# Applied Conditions: 20 min post injection
Measured Attribute: Biodistribution in rats: Blood (% dose/g)

• CCOCCN1CC[P](CCCOC)(CCCOC)[99Tc+]2(#[N])([S]C(N(CCOCC)C(C)C)=[S]2)[P](CCCOC)(CCCOC)CC1 [[^99mTc(N) (PNP5) (ISOET)]^+] = 0.02
• CCOCCN1CC[P](CCCOC)(CCCOC)[99Tc+]2(#[N])([S]C(N(CCOCC)CCOCC)=[S]2)[P](CCCOC)(CCCOC)CC1 [[^99mTc(N) (PNP5) (DBODC)]^+] = 0.02

====

# Experiment Summary: Biodistribution of the 99mTc(N) heterocomplexes in rats (organ uptake, heart accumulation, heart/lung and heart/liver ratios)
# Format: in vivo, female Sprague-Dawley rats
# Applied Conditions: 2 min post injection
Measured Attribute: Biodistribution in rats: Blood (% ID/g)

A. COCCC[P]1(CCCOC)CCN(CCOC)CC[P](CCCOC)(CCCOC)[99Tc+]12(#[N])[S]C(N(CCOC)CCOC)=[S]2 [[^99mTc(N) (PNP3) (DPODC)]^+]
B. CCOCCN(CCOCC)C1=[S][99Tc+]2(#[N])([S]1)[P](CCCOC)(CCCOC)CCN(CCOC)CC[P]2(CCCOC)CCCOC [[^99mTc(N) (PNP3) (DBODC)]^+]
IN: Kindly identify which of A and B has the larger recorded Biodistribution in rats: Blood value. Give the label of your selection.
OUT: A
(A: 0.30 % ID/g, B: 0.11 % ID/g)

====

# Experiment Summary: Biodistribution of the 99mTc(N) heterocomplexes in rats (organ uptake, heart accumulation, heart/lung and heart/liver ratios)
# Format: in vivo, female Sprague-Dawley rats
# Applied Conditions: 30 min post injection
Measured Attribute: Biodistribution in rats: Blood (% dose/g)

• CCOCCN1CC[P](CCCOC)(CCCOC)[99Tc+]2(#[N])([S]C(N(CCOCC)C(C)C)=[S]2)[P](CCCOC)(CCCOC)CC1 [[^99mTc(N) (PNP5) (ISOET)]^+] = 0.02
• CCOCCN1CC[P](CCCOC)(CCCOC)[99Tc+]2(#[N])([S]C(N(CCOCC)CCOCC)=[S]2)[P](CCCOC)(CCCOC)CC1 [[^99mTc(N) (PNP5) (DBODC)]^+] = 0.02

====

# Experiment Summary: Biodistribution of the 99mTc(N) heterocomplexes in rats (organ uptake, heart accumulation, heart/lung and heart/liver ratios)
# Assay type: in vivo, female Sprague-Dawley rats
# Applied Conditions: rats, 120 min
Measured Attribute: Heart accumulation (% ID/g)

• CCOCCN1CC[P](CCCOC)(CCCOC)[99Tc+]2(#[N])([S]C(N(CCOCC)C(C)C)=[S]2)[P](CCCOC)(CCCOC)CC1 [[^99m−Tc(N) (PNP5) (ISOET)^+]] = 2.44

P. CCOCCN1CC[P](CCCOC)(CCCOC)[99Tc+]2(#[N])([S]C(N(CCOCC)CCOCC)=[S]2)[P](CCCOC)(CCCOC)CC1 [[^99m−Tc(N) (PNP5) (DBODC)^+]]
Q. CCOCCC[P]1(CCCOCC)CCN(CCOCC)CC[P](CCCOCC)(CCCOCC)[99Tc+]12(#[N])[S]C(N(CCOCC)CCOCC)=[S]2 [[^99m−Tc(N) (PNP6) (DBODC)^+]]
IN: Kindly identify which of P and Q has the larger recorded Heart accumulation value. Give the label of your selection.
OUT: P
(P: 3.31 % ID/g, Q: 1.29 % ID/g)

====

# Experiment Summary: Biodistribution of the 99mTc(N) heterocomplexes in rats (organ uptake, heart accumulation, heart/lung and heart/liver ratios)
# Type: in vivo, female Sprague-Dawley rats
# Applied Conditions: 10 min post injection
Measured Attribute: Biodistribution in rats: Brain (% dose/g)

a. CCOCCN1CC[P](CCCOC)(CCCOC)[99Tc+]2(#[N])([S]C(N(CCOCC)C(C)C)=[S]2)[P](CCCOC)(CCCOC)CC1 [[^99mTc(N) (PNP5) (ISOET)]^+]
b. CCOCCN1CC[P](CCCOC)(CCCOC)[99Tc+]2(#[N])([S]C(N(CCOCC)CCOCC)=[S]2)[P](CCCOC)(CCCOC)CC1 [[^99mTc(N) (PNP5) (DBODC)]^+]
IN: Hello, I am sorting some records. Could you say if a or b has the smaller Biodistribution in rats: Brain value? Give the label of your selection.
OUT: b
(b: 0.01 % dose/g, a: 0.02 % dose/g)

====

# Experiment Summary: Biodistribution of the 99mTc(N) heterocomplexes in rats (organ uptake, heart accumulation, heart/lung and heart/liver ratios)
# Type: in vivo, female Sprague-Dawley rats
# Applied Conditions: 120 min post injection
Measured Attribute: Biodistribution in rats: Adrenal glands (% ID/g)

A. COCCC[P]1(CCCOC)CCN(CCOC)CC[P](CCCOC)(CCCOC)[99Tc+]12(#[N])[S]C(N(CCOC)CCOC)=[S]2 [[^99mTc(N) (PNP3) (DPODC)]^+]
B. CCOCCN(CCOCC)C1=[S][99Tc+]2(#[N])([S]1)[P](CCCOC)(CCCOC)CCN(CCOC)CC[P]2(CCCOC)CCCOC [[^99mTc(N) (PNP3) (DBODC)]^+]
IN: Kindly identify which of A and B has the larger recorded Biodistribution in rats: Adrenal glands value. Give the label of your selection.
OUT: B

====

# Experiment Summary: Biodistribution of the 99mTc(N) heterocomplexes in rats (organ uptake, heart accumulation, heart/lung and heart/liver ratios)
# Type: in vivo, female Sprague-Dawley rats
# Applied Conditions: 20 min post injection
Measured Attribute: Biodistribution in rats: Intestine (% dose/g)

- CCOCCN1CC[P](CCCOC)(CCCOC)[99Tc+]2(#[N])([S]C(N(CCOCC)CCOCC)=[S]2)[P](CCCOC)(CCCOC)CC1 [[^99mTc(N) (PNP5) (DBODC)]^+]: 9.63
- CCOCCN1CC[P](CCCOC)(CCCOC)[99Tc+]2(#[N])([S]C(N(CCOCC)C(C)C)=[S]2)[P](CCCOC)(CCCOC)CC1 [[^99mTc(N) (PNP5) (ISOET)]^+]: 7.44
